TARGET_OF_ASSAY: T1, Human VSIG4-L-Fc (human)
T1 construct: also called hVSIG4-L-Fc; hVSIG4-L
METHOD_DESCRIPTION: blocking ELISA, biotin-iC3b on coated hVSIG4-L-Fc
Exercise: for every item that follows, state its recorded Percent Blocking iC3b.
Answers are plain numbers, in %.

Solved cases (4 shown):
BINDER	Percent Blocking iC3b / %
12A08 mouse Fab (periplasmic extract) (Fab, V domains shown, mouse Fab with C-terminal His6-c-myc tag) VH: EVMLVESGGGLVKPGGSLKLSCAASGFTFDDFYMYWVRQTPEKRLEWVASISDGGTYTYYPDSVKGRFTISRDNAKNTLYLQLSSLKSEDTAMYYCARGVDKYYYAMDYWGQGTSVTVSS VL: QILLTQSPAIMSASPGEKVTITCSASSSVSYMHWFQQKPGTSPKLWIYSTSNLASGVPARFSGSGSGTSYSLTISRMEAEDAATYYCQQRSSYPLTFGAGTKLELK	53.4
16E10 mouse Fab (periplasmic extract) (Fab, V domains shown, mouse Fab with C-terminal His6-c-myc tag) VH: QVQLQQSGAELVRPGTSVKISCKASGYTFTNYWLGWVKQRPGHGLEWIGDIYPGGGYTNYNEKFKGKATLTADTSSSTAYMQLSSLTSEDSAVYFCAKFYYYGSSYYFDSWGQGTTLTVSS VL: DIVLTQSPSSLSVSAGEKVTLSCKSSQSLLNSGNQENYLAWYQQKPGQPPKLLIYGASTRESGVPDRFTGSGSGTDFTLTISSVQAEDLAVYYCQNDHSYPLTFGAGTKLELK	7.6
12A12 mouse Fab (periplasmic extract) (Fab, V domains shown, mouse Fab with C-terminal His6-c-myc tag) VH: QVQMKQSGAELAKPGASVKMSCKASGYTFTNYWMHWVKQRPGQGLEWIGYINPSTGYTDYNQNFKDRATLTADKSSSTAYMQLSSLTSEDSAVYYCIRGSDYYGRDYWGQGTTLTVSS VL: DIQMTQTTSSLSASLGDRVTISCRASQDISNYLNWYQQKPDGTLKLLIYYTSRLHSGVPSRFSGSGSGTDYSLTISNLEQEDIATYFCRQGNTLPWTFGGGTKLEIK	76.5
14D12 mouse Fab (periplasmic extract) (Fab, V domains shown, mouse Fab with C-terminal His6-c-myc tag) VH: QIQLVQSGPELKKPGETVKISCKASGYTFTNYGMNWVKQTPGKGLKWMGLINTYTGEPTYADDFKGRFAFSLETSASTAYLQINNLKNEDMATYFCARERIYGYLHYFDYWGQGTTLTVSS VL: DVVMTQTPASLAVSLGQRATISCKASQSVDYDGDSYMNWYQQKPGQPPKLLIYAASNLESGIPARFSGSGSGTDFTLNIHPVEEEDAATYYCQQSNEDPRTFGGGTKLEIK	56

For each listed entry, give its Percent Blocking iC3b.
1. 14C05 mouse Fab (periplasmic extract) (Fab, V domains shown, mouse Fab with C-terminal His6-c-myc tag) VH: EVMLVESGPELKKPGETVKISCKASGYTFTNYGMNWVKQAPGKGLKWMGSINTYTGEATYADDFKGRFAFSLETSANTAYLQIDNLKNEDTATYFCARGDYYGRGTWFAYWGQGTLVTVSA VL: ETTVTQSHKFMSTSVGDRVSITCKASQDVSTAVAWYQQKPGQSPKLLIYSASYRYPGVPDRFTGSGSGTDFTFTISSVQAEDLAVYYCQQDYSSPWTFGGGTKLEIK
2. 15A06 mouse Fab (periplasmic extract) (Fab, V domains shown, mouse Fab with C-terminal His6-c-myc tag) VH: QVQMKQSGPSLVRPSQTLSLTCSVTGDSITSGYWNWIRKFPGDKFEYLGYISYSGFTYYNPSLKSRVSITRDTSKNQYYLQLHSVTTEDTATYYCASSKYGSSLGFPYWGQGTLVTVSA VL: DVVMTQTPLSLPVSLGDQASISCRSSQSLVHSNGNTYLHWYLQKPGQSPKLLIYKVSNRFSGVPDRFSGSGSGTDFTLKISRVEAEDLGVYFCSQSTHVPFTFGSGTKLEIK

Ans:
1. 88.7
2. 1.4
